Listing of recorded ID/g by entry.
# Tested on: Rattus norvegicus
# experimentNotes: Biodistribution in thyroid of immature female rat after 1 hr administration of 3 micro Ci (111 kBq) in the presence of (+E2)
# Assay type: ADME, organism-based, Thyroid gland
# measurementSetup: in vivo

cpdSmiles: C[C@@H]1Cc2c(ccc(O)c2F)[C@H]2CC[C@@]3(C)[C@@H](CC[C@@]3(O)/C=C/I)[C@H]12
ID/g: 56%
//
cpdSmiles: C[C@]12CC[C@@H]3c4ccc(O)c(F)c4CC[C@H]3[C@@H]1CC[C@@]2(O)/C=C/I
ID/g: 65.69%
//
cpdSmiles: C[C@]12CC[C@@H]3c4cc(F)c(O)cc4CC[C@H]3[C@@H]1CC[C@@]2(O)/C=C\I
ID/g: 36.11%
//
cpdSmiles: C[C@]12CC[C@@H]3c4cc(F)c(O)cc4CC[C@H]3[C@@H]1CC[C@@]2(O)/C=C/I
ID/g: 22%

* * *

# System: Rattus norvegicus
# experimentNotes: Biodistribution in blood of immature female rat after 3 hour administration of 3 micro Ci (111 kBq) in the absence of 60 microg estradiol
# Format: ADME, organism-based
# measurementSetup: in vivo
Measured ID/g values are reported for all entries that follow.

cpdSmiles: C[C@@H]1Cc2cc(O)c(F)cc2[C@H]2CC[C@@]3(C)[C@@H](CC[C@@]3(O)/C=C\I)[C@H]12
ID/g (%): 0.32
//
cpdSmiles: C[C@]12CC[C@@H]3c4ccc(O)c(F)c4CC[C@H]3[C@@H]1CC[C@@]2(O)/C=C/I
ID/g (%): 0.96
//
cpdSmiles: C[C@@H]1Cc2cc(O)c(F)cc2[C@H]2CC[C@@]3(C)[C@@H](CC[C@@]3(O)/C=C/I)[C@H]12
ID/g (%): 0.2

* * *

ID/g values, listed per item
# Test system: Rattus norvegicus
# experimentNotes: Biodistribution in muscle of immature female rat after 3 hour administration of 3 micro Ci (111 kBq) in the absence of 60 microg estradiol
# Assay type: ADME, organism-based, Muscle tissue
# measurementSetup: in vivo

cpdSmiles: C[C@@H]1Cc2cc(O)c(F)cc2[C@H]2CC[C@@]3(C)[C@@H](CC[C@@]3(O)/C=C/I)[C@H]12
ID/g (%): 0.15

cpdSmiles: C[C@]12CC[C@@H]3c4ccc(O)c(F)c4CC[C@H]3[C@@H]1CC[C@@]2(O)/C=C/I
ID/g (%): 0.31

cpdSmiles: CO[C@H]1C[C@@]2(C)[C@@H](CC[C@@]2(O)/C=C/I)[C@@H]2CCc3cc(O)c(F)cc3[C@H]21
ID/g (%): 0.56

cpdSmiles: C[C@]12CC[C@@H]3c4cc(F)c(O)cc4CC[C@H]3[C@@H]1CC[C@@]2(O)/C=C\I
ID/g (%): 0.28

* * *

# System: Rattus norvegicus
# experimentNotes: Biodistribution in kidney of immature female rat after 5 hour administration of 3 micro Ci (111 kBq) in the absence of 60 microg estradiol
# Type: ADME, organism-based
# measurementSetup: in vivo
Reported ID/g values are given for each entry in this list.

cpdSmiles: C[C@@H]1Cc2c(ccc(O)c2F)[C@H]2CC[C@@]3(C)[C@@H](CC[C@@]3(O)/C=C\I)[C@H]12
experimentalSystem: Rattus norvegicus
ID/g (%): 0.67
//
cpdSmiles: C[C@]12CC[C@@H]3c4cc(F)c(O)cc4CC[C@H]3[C@@H]1CC[C@@]2(O)/C=C/I
experimentalSystem: Rattus norvegicus
ID/g (%): 0.25
//
cpdSmiles: C[C@]12CC[C@@H]3c4cc(F)c(O)cc4CC[C@H]3[C@@H]1CC[C@@]2(O)/C=C\I
experimentalSystem: Rattus norvegicus
ID/g (%): 0.3
//
cpdSmiles: C[C@]12CC[C@@H]3c4ccc(O)c(F)c4CC[C@H]3[C@@H]1CC[C@@]2(O)/C=C\I
experimentalSystem: Rattus norvegicus
ID/g (%): 0.58

* * *

Catalogue of compounds with associated ID/g
# System: Rattus norvegicus
# experimentNotes: Biodistribution in fat of immature female rat after 5 hour administration of 3 micro Ci (111 kBq) in the absence of 60 microg estradiol
# Format: ADME, organism-based, Adipose tissue
# measurementSetup: in vivo

cpdSmiles: CO[C@H]1C[C@@]2(C)[C@@H](CC[C@@]2(O)/C=C/I)[C@@H]2CCc3cc(O)c(F)cc3[C@H]21
readoutUnits: %
ID/g: 1.57
//
cpdSmiles: C[C@]12CC[C@@H]3c4ccc(O)c(F)c4CC[C@H]3[C@@H]1CC[C@@]2(O)/C=C/I
readoutUnits: %
ID/g: 1.67
//
cpdSmiles: C[C@@H]1Cc2c(ccc(O)c2F)[C@H]2CC[C@@]3(C)[C@@H](CC[C@@]3(O)/C=C/I)[C@H]12
readoutUnits: %
ID/g: 4.59

* * *

# System: Rattus norvegicus
# experimentNotes: Biodistribution in uterus of immature female rat after 5 hour administration of 3 micro Ci (111 kBq) in the absence of 60 microg estradiol
# Type: ADME, organism-based
# measurementSetup: in vivo
Each record here notes measured ID/g.
recordedMetric: ID/g

cpdSmiles: C[C@@H]1Cc2c(ccc(O)c2F)[C@H]2CC[C@@]3(C)[C@@H](CC[C@@]3(O)/C=C\I)[C@H]12
endpointValue: 4.39%

cpdSmiles: C[C@]12CC[C@@H]3c4ccc(O)c(F)c4CC[C@H]3[C@@H]1CC[C@@]2(O)/C=C\I
endpointValue: 10.22%

cpdSmiles: C[C@]12CC[C@@H]3c4cc(F)c(O)cc4CC[C@H]3[C@@H]1CC[C@@]2(O)/C=C/I
endpointValue: 0.34%

cpdSmiles: CO[C@H]1C[C@@]2(C)[C@@H](CC[C@@]2(O)/C=C/I)[C@@H]2CCc3cc(O)c(F)cc3[C@H]21
endpointValue: 3.9%

cpdSmiles: C[C@@H]1Cc2cc(O)c(F)cc2[C@H]2CC[C@@]3(C)[C@@H](CC[C@@]3(O)/C=C\I)[C@H]12
endpointValue: 3.4%

cpdSmiles: CO[C@H]1C[C@@]2(C)[C@@H](CC[C@@]2(O)/C=C\I)[C@@H]2CCc3c(ccc(O)c3F)[C@H]21
endpointValue: 10.96%

cpdSmiles: C[C@]12CC[C@@H]3c4cc(F)c(O)cc4CC[C@H]3[C@@H]1CC[C@@]2(O)/C=C\I
endpointValue: 3.67%

* * *

Recorded measurements of ID/g, one per entry
# System: Rattus norvegicus
# experimentNotes: Biodistribution in lungs of immature female rat after 1 hr administration of 3 micro Ci (111 kBq) in the absence of 60 microg estradiol
# Type: ADME, organism-based, Lung
# measurementSetup: in vivo

cpdSmiles: C[C@]12CC[C@@H]3c4ccc(O)c(F)c4CC[C@H]3[C@@H]1CC[C@@]2(O)/C=C/I
ID/g (%): 0.89
//
cpdSmiles: C[C@@H]1Cc2cc(O)c(F)cc2[C@H]2CC[C@@]3(C)[C@@H](CC[C@@]3(O)/C=C\I)[C@H]12
ID/g (%): 0.56
//
cpdSmiles: C[C@@H]1Cc2c(ccc(O)c2F)[C@H]2CC[C@@]3(C)[C@@H](CC[C@@]3(O)/C=C/I)[C@H]12
ID/g (%): 1.47
//
cpdSmiles: C[C@@H]1Cc2cc(O)c(F)cc2[C@H]2CC[C@@]3(C)[C@@H](CC[C@@]3(O)/C=C/I)[C@H]12
ID/g (%): 0.54
//
cpdSmiles: C[C@]12CC[C@@H]3c4cc(F)c(O)cc4CC[C@H]3[C@@H]1CC[C@@]2(O)/C=C\I
ID/g (%): 0.81
//
cpdSmiles: C[C@]12CC[C@@H]3c4cc(F)c(O)cc4CC[C@H]3[C@@H]1CC[C@@]2(O)/C=C/I
ID/g (%): 1

* * *

// reported uterus to nontarget tissue ratio for each item listed
# System: Rattus norvegicus
# experimentNotes: Biodistribution in uterus / spleen, muscle, lungs of immature female rat after 12 hour administration of 3 micro Ci (111 kBq) in the absence of 60 microg estradiol
# Assay type: ADME, organism-based
# measurementSetup: in vivo

cpdSmiles: C[C@]12CC[C@@H]3c4ccc(O)c(F)c4CC[C@H]3[C@@H]1CC[C@@]2(O)/C=C\I
experimentalSystem: Rattus norvegicus
uterus to nontarget tissue ratio: 31.56%
//
cpdSmiles: C[C@@H]1Cc2cc(O)c(F)cc2[C@H]2CC[C@@]3(C)[C@@H](CC[C@@]3(O)/C=C\I)[C@H]12
experimentalSystem: Rattus norvegicus
uterus to nontarget tissue ratio: 15.99%
//
cpdSmiles: C[C@@H]1Cc2c(ccc(O)c2F)[C@H]2CC[C@@]3(C)[C@@H](CC[C@@]3(O)/C=C\I)[C@H]12
experimentalSystem: Rattus norvegicus
uterus to nontarget tissue ratio: 17.02%
//
cpdSmiles: C[C@@H]1Cc2c(ccc(O)c2F)[C@H]2CC[C@@]3(C)[C@@H](CC[C@@]3(O)/C=C/I)[C@H]12
experimentalSystem: Rattus norvegicus
uterus to nontarget tissue ratio: 15.57%

* * *

# Test system: Rattus norvegicus
# experimentNotes: Biodistribution in fat of immature female rat after 3 hour administration of 3 micro Ci (111 kBq) in the absence of 60 microg estradiol
# Assay type: ADME, organism-based, Adipose tissue
# measurementSetup: in vivo

cpdSmiles: C[C@]12CC[C@@H]3c4ccc(O)c(F)c4CC[C@H]3[C@@H]1CC[C@@]2(O)/C=C/I
experimentalSystem: Rattus norvegicus
ID/g, %: 1.59
--
cpdSmiles: C[C@]12CC[C@@H]3c4cc(F)c(O)cc4CC[C@H]3[C@@H]1CC[C@@]2(O)/C=C\I
experimentalSystem: Rattus norvegicus
ID/g, %: 2.21
--
cpdSmiles: C[C@@H]1Cc2cc(O)c(F)cc2[C@H]2CC[C@@]3(C)[C@@H](CC[C@@]3(O)/C=C\I)[C@H]12
experimentalSystem: Rattus norvegicus
ID/g, %: 1.54
--
cpdSmiles: C[C@@H]1Cc2c(ccc(O)c2F)[C@H]2CC[C@@]3(C)[C@@H](CC[C@@]3(O)/C=C/I)[C@H]12
experimentalSystem: Rattus norvegicus
ID/g, %: 4
--
cpdSmiles: C[C@]12CC[C@@H]3c4ccc(O)c(F)c4CC[C@H]3[C@@H]1CC[C@@]2(O)/C=C\I
experimentalSystem: Rattus norvegicus
ID/g, %: 1.96
--
cpdSmiles: CO[C@H]1C[C@@]2(C)[C@@H](CC[C@@]2(O)/C=C/I)[C@@H]2CCc3cc(O)c(F)cc3[C@H]21
experimentalSystem: Rattus norvegicus
ID/g, %: 1.82
--
cpdSmiles: C[C@@H]1Cc2c(ccc(O)c2F)[C@H]2CC[C@@]3(C)[C@@H](CC[C@@]3(O)/C=C\I)[C@H]12
experimentalSystem: Rattus norvegicus
ID/g, %: 1.42
